- assayExplanation: Counterscreen qHTS for Identification of Calcium Integrin Binding Protein 1 (CIB1) Competitor; also: potency is read from the fitted curve at half-maximal effect
- particulars: series mostly up to 114 µM
Results filed as inconclusive are left out. Calls of active or inactive are those of the source. Calls follow the shape of the dose curve; as a rule, active = well fitted inhibition curve with a large enough effect; inconclusive = small, poorly fitted or top-dose-only effect; inactive = no such curve, though single readings can be large or run the other way.
testReadout: Potency

compound	testReadout	measured
O=C(Nc1ccc(S(=O)(=O)N2CCOCC2)cc1)c1cc(Cl)ccc1NS(=O)(=O)c1ccc(Cl)s1	Potency	inactive
C=CCNc1oc(-c2ccc(-c3ccccc3)cc2)nc1C#N	Potency	inactive
O=C1CCCC2=C1C(c1[nH]ncc1Cl)N=C(Nc1nc3ccccc3o1)N2 (stereo not given)	Potency	inactive
O=S(=O)(c1ccc2nc(Cl)c(Cl)nc2c1)N1CCN(S(=O)(=O)c2c(F)cccc2F)CC1	Potency	inactive
CC(C)(C)OC(=O)CC(=O)NNC(=O)c1nc2ccccc2[nH]1	Potency	inactive
O=C1c2c(O)ccc(O)c2C(=O)c2c(NCCNCCO)ccc(NCCNCCO)c21	Potency	20 µM (active)
C[C@H](Cc1ccc(O)c(O)c1)[C@@H](C)Cc1ccc(O)c(O)c1	Potency	12.6 µM (active)
COC(=O)c1cc(Cl)ccc1NS(=O)(=O)C(F)(F)F	Potency	inactive
Cc1ccc(S(=O)(=O)Nc2ccc(Br)cc2C(=O)Nc2nc(-c3ccccc3)cs2)cc1	Potency	inactive
O=C1CCCC2=C1C1(CCCOC1)N=C(Nc1nc3ccccc3o1)N2 (stereo not given)	Potency	inactive
